Tested on: SB.mhdgc-1
Test: AC50 for growth inhibition (viability) (log10 M); higher = less potent
Settings: SB.mhdgc-1 (hereditary c.1380delA CDH1 gastric cancer)
Quantity: AC50 for growth inhibition (log10 M)
Keep the answer to the number alone.

Record excerpt, results attached:
Compound: COC1=CC=C(C=C1)/C2=C(O)/C(=O)C3=C(O)C=C(O)C(=C3O2)CC=C(C)C
Quantity: AC50 for growth inhibition (log10 M)
Endpoint value: -4.88
--
Compound: O=C1\C=C(OC2=C(C=CC=C12)C3=CC=CC4=C3SC5=C4C=CC=C5)\N6CCOCC6
Quantity: AC50 for growth inhibition (log10 M)
Endpoint value: -4.68
--
Compound: Cc1cn(-c2cc(NC(=O)c3ccc(C)c(Nc4nccc(-c5cccnc5)n4)c3)cc(C(F)(F)F)c2)cn1
Quantity: AC50 for growth inhibition (log10 M)
Endpoint value: -5.18
--
Compound: CC[S+](=O)([O-])Nc1ccc2c(c1)/C(=C(/Nc1ccc(CN3CCCCC3)cc1)c1ccccc1)C(=O)N2
Quantity: AC50 for growth inhibition (log10 M)
Endpoint value: -5.18

Could you now consider this next compound?
Input `O=C(CCCCCCC(=O)Nc1ccccc1)NO` . Output AC50 for growth inhibition (log10 M): -5.63

====

Tested on: SB.mhdgc-1
Assay: area under the dose-response curve of % viability (trapezoidal, 11 doses) (% viability x log10 concentration); higher = less cytotoxic
Conditions: SB.mhdgc-1 (hereditary c.1380delA CDH1 gastric cancer)
Where a name gives a salt, the structure may show the parent alone.
Quantity: area under the dose-response curve
Number only, please.

Sample records with area under the dose-response curve:
Compound: Cc1[nH]c(/C=C2\C(=O)Nc3ccc([S+](=O)([O-])N(C)c4cccc(Cl)c4)cc32)c(C)c1C(=O)N1CCN(C)CC1 [SU-MI-2] (top concentration 46.0829 µM)
area under the dose-response curve: 584

Compound: COc1cc2nc(N3CCN(C(=O)C4CCCO4)CC3)nc(N)c2cc1OC (stereo not drawn) [Terazosin hydrochloride] (top concentration 46.0829 µM)
area under the dose-response curve: 496

Compound: COc1cc2cc(c1Cl)N(C)C(=O)C[C@H](OC(=O)C(C)C)[C@]1(C)O[C@@H]1[C@H](C)[C@@H]1C[C@@](O)(NC(=O)O1)[C@H](OC)/C=C/C=C(\C)C2 [Ansamitocin P3] (top concentration 46.0829 µM)
area under the dose-response curve: 223

Sample CCCCCCNC(=O)N1\C=C(F)/C(=O)NC1=O [Carmofur] (top concentration 46.0829 µM) ; area under the dose-response curve observed: 442

Memo: CC1(C)Cc2c(sc(NC(=S)NC(=O)c3ccccc3)c2C(=O)O)CO1 (top concentration 46.0829 µM) , reported area under the dose-response curve: 480

In plain terms, CC(C)Oc1cc(Nc2nc(N[C@@H](C)c3ccc(F)cn3)ncc2Cl)n[nH]1 [AZ-23] (top concentration 46.0829 µM) has a documented area under the dose-response curve of 473

Record CCOc1ccccc1N/N=C1/C(=O)N(c2nc(-c3ccccc3)cs2)N=C1C [BAM7] (top concentration 46.0829 µM) . Reported area under the dose-response curve: 434

GET /value?item= CC(=O)O[C@H]1C[C@@H]2CC[C@@H]3[C@H](CC[C@@]4(C)[C@H]3C[C@H]([N+]3(C)CCCCC3)[C@@H]4OC(C)=O)[C@@]2(C)C[C@@H]1[N+]1(C)CCCCC1 [Pancuronium bromide] (top concentration 46.0829 µM) &field=area under the dose-response curve returns 588

Looking up NC(=O)Cc1cccc(C(=O)c2ccccc2)c1N [Nepafenac] (top concentration 46.0829 µM) , I found its area under the dose-response curve recorded as 566

So, CCc1cc(/C(C)=N/OCc2ccc(C3CCCCC3)c(C(F)(F)F)c2)ccc1CN1CC(C(=O)O)C1 [BAF-312] (top concentration 46.0829 µM) ? Its area under the dose-response curve was 535

# compound CC[C@@H]([C@H](C)O)n1ncn(-c2ccc(N3CCN(c4ccc(OCC5CO[C@@](Cn6cncn6)(c6ccc(F)cc6F)C5)cc4)CC3)cc2)c1=O (stereo partly drawn) [Posaconazole] (top concentration 46.0829 µM) ; its area under the dose-response curve = 448

Kindly note the recorded area under the dose-response curve for C[S+](=O)([O-])c1cccc(CNc2nc(Nc3ccc4c(c3)CCC(=O)N4)ncc2C(F)(F)F)c1 (top concentration 46.0829 µM) , which is 462

Per the record, CC(=O)Nc1ccc(OC[C@](C)(O)C(=O)Nc2ccc([N+](=O)[O-])c(C(F)(F)F)c2)cc1 [Andarine] (top concentration 46.0829 µM) has area under the dose-response curve of 425

Per the record, Nc1n[nH]c2nnc(-c3c(-c4ccccc4)nn4ccccc34)cc12 (top concentration 46.0829 µM) has area under the dose-response curve of 438

The reported value for COc1cccc2cc(-c3nc(C4CCC(C(=O)O)CC4)n4ncnc(N)c34)[nH]c12 (stereo not drawn) [OSI-027] (top concentration 46.0829 µM) in terms of area under the dose-response curve is 363

Item: CCC(CCCC)COC(=O)C(\C#N)=C(\c1ccccc1)c2ccccc2 (stereo not drawn) [Octocrylene] (top concentration 46.0829 µM) | area under the dose-response curve: 453

The compound listed as COC(=O)C1=C(C)NC(C)=C(C(=O)OCCN2CCN(C(c3ccccc3)c3ccccc3)CC2)C1c1cccc([N+](=O)[O-])c1.Cl.Cl (stereo not drawn) [Manidipine] (top concentration 46.0829 µM) has a reported area under the dose-response curve of 588

Looking up CCOC\1=C(/C(=O)NC2=CC=C(OC3=C(Cl)C(=NC=C3)N)C(=C2)F)C(=O)N(\C=C1)C4=CC=C(F)C=C4 (top concentration 46.0829 µM) , I found its area under the dose-response curve recorded as 562

Short answer for CC[N+](CC)(CC)CCOc1cccc(OCC[N+](CC)(CC)CC)c1OCC[N+](CC)(CC)CC [Gallamine triethiodide] (top concentration 46.0829 µM) : area under the dose-response curve was 524

Lab note: measured area under the dose-response curve of COC1CCC(CC1)N(C(=O)C2CCC(C)CC2)C3=C(SC(=C3)\C4=C\CCCC4)C(O)=O (stereo not drawn) [VCH-916] (top concentration 46.0829 µM) was 482

Note to self: area under the dose-response curve recorded for C[C@]\1(CCS\C(=N1)N)C2=CC(=C(F)C=C2F)C3=CN=CN=C3 (top concentration 46.0829 µM) was 464

Short answer for C=C(C)[C@@H]1CC[C@]2(C)CC[C@]3(C)[C@H](CC[C@@H]4[C@@]5(C)CC[C@H](O)C(C)(C)[C@@H]5CC[C@]43C)[C@@H]12 [Lupeol] (top concentration 46.0829 µM) : area under the dose-response curve was 609

Lab note: O=C(O)c1cccnc1 [Niacin] (top concentration 46.0829 µM) gave area under the dose-response curve of 521
